Data provenance: patent US11083725B2

Recorded 590 nm absorbance normalized to zero hour (substrate use), 2 hr by entry
- System: NHBE cells
- TEST PROTOCOL: Biolog metabolic array: substrate use by NHBE cells with or without CA09 infection
- Format: cell-based, human
- CONDITION DETAILS: Virus: CA09-infected NHBE cells, MOI 1; Biolog PMM2; 2 hr
Give the value as a plain number.

Look over these answered cases.
COC(=O)[C@@H](C)O [Methyl D-Lactate]; 2.49
OC[C@@H](O)[C@@H](O)[C@H](O)[C@@H](O)CO; 2.63
CC(=O)C(C)O (stereo not drawn) [3-Hydroxy 2-Butanone]; 1.65
O=C(O)CCCO [g-Hydroxy-Butyric Acid]; 0.53
OC[C@H]1O[C@H](OC[C@H]2O[C@H](O[C@]3(CO)O[C@H](CO)[C@@H](O)[C@@H]3O)[C@H](O)[C@@H](O)[C@@H]2O)[C@H](O)[C@@H](O)[C@H]1O; 0.59

(Q) Give the measured 590 nm absorbance normalized to zero hour (substrate use), 2 hr for O=C(O)C[C@@H](O)C(=O)O
(A) 2.49

(Q) Look up and report measured 590 nm absorbance normalized to zero hour (substrate use), 2 hr for this entry: O=c1[nH]cnc2c1ncn2[C@@H]1O[C@H](CO)[C@@H](O)[C@H]1O
(A) 1.78

(Q) Supply reported 590 nm absorbance normalized to zero hour (substrate use), 2 hr belonging to this compound: OC[C@H]1O[C@@H](OC[C@H]2OC(O)[C@H](O)[C@@H](O)[C@@H]2O)[C@H](O)[C@@H](O)[C@@H]1O (stereo partly drawn)
(A) 1.38

(Q) Give 590 nm absorbance normalized to zero hour (substrate use), 2 hr for CC[C@H](O)C(=O)O (racemic) [D,L-a-Hydroxy-Butyric Acid]
(A) 1.58
